Quick reference: pEC50 of the listed items.
- tested target: RXR alpha/PPAR gamma (Homo sapiens, UniProt P19793+P37231)
- Sequence (P37231 whole entry): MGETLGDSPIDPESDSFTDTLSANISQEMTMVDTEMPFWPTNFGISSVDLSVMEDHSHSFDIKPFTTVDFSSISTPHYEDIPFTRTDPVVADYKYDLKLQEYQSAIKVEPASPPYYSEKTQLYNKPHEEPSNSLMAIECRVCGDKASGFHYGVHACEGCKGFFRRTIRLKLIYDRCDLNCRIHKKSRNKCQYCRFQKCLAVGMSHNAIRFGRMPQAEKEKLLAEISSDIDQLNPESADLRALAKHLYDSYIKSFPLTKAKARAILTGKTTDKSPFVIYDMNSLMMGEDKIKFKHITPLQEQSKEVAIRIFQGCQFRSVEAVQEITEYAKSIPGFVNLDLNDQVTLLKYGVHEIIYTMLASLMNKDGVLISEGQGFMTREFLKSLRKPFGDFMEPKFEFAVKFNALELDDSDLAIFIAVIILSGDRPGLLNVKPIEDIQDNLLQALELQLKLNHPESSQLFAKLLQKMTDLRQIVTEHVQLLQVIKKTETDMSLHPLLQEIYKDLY
- Sequence (P19793 whole entry): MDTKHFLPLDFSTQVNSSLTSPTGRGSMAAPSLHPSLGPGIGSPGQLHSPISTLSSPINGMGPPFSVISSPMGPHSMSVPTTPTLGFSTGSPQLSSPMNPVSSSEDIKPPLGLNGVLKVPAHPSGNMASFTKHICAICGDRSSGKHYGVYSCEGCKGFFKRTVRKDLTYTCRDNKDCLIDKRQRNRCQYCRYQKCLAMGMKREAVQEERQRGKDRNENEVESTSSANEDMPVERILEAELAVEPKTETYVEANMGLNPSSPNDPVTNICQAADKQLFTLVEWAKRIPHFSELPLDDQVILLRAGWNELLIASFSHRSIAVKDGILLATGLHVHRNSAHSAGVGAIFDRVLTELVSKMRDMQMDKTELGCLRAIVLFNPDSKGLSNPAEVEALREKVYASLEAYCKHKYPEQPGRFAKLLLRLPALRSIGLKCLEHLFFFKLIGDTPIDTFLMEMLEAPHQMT
- assay info: Transcriptional activation in COS cells expressing PPAR gamma and RXR alpha
pEC50: −log10 of the molar value.
readout label: pEC50

In [3]: df
Out[3]:
                                   molecule  readout_label  readout_number
0  COc1cc(CCCC2OC(=O)NC2=O)ccc1OCc1nc(-c2ccco2)oc1C (stereo in doubt; 64)          pEC50            7.62
1  Cc1sc(-c2ccccc2)nc1COc1ccc(CCCC2OC(=O)NC2=O)cc1 (single isomer, unassigned; (+))          pEC50            6.57
2  Cc1oc(-c2ccc3ccccc3c2)nc1COc1ccc(CCCC2OC(=O)NC2=O)cc1 (centres undefined)          pEC50            7.53
3  Cc1oc(-c2ccccc2)nc1COc1ccc(CCCC2OC(=O)NC2=O)cc1 (centres undefined)          pEC50            6.92
